system: TAB113; assay: qHTS profiling for inhibitors of Plasmodium falciparum proliferation (AID 504749); further: nearly all actives have a fitted effect of over 60% in size; conditions: P. falciparum in erythrocytes, SYBR Green DNA, 72 h; series mostly up to 28.7 µM
Inconclusive results are not listed. The source made the active and inactive calls. The call rests on the fitted dose curve; in most records, active means well fitted inhibition curve with a large enough effect; inconclusive means small, poorly fitted or top-dose-only effect; inactive means flat fitted curve, though single readings scatter.
Write down one outcome, taken from active, inactive

molecule	system under test	group label
CCCOc1ccccc1-c1nc2n[nH]nc2c(=O)[nH]1	TAB113	inactive
CCN(CC)CC(=O)Nc1c(C)cccc1C	TAB113	inactive
NC1=NCC2c3ccccc3Cc3ccccc3N12 (stereo not given)	TAB113	inactive
CCCCNc1c(C(=O)OCC)c(C)nc2c1cnn2CC	TAB113	inactive
CCN1CCC[C@H]1CNC(=O)c1c(O)c(Cl)cc(Cl)c1OC	TAB113	inactive
CCO/C([O-])=N/c1c[n+](N2CCOCC2)no1	TAB113	inactive
CCn1cc(C(=O)O)c(=O)c2cc3c(cc21)OCO3	TAB113	inactive
Cc1scc2c1N(C(=O)CN1CCN(C)CC1)c1ccccc1NC2=O	TAB113	inactive

Request: Short answer needed: outcome of this test for `Cc1nc2ccccn2c(=O)c1CCN1CCC(C(=O)c2ccc(F)cc2)CC1` ?
Response: inactive

Request: Short answer needed: outcome of this test for `O=C(CCCN1CCC(O)(c2cccc(C(F)(F)F)c2)CC1)c1ccc(F)cc1` ?
Response: active

---

test system: CP335; test: qHTS profiling for inhibitors of Plasmodium falciparum proliferation (AID 504749); further: nearly all actives have a fitted effect of over 60% in size; settings: P. falciparum in erythrocytes, SYBR Green DNA, 72 h; series mostly up to 28.7 µM
Records with an inconclusive call do not appear. The source made the active and inactive calls. Calls follow the shape of the dose curve; as a rule, active = well fitted inhibition curve with a large enough effect; inconclusive = small, poorly fitted or top-dose-only effect; inactive = flat fitted curve, though single readings scatter.
Write down one outcome, taken from active, inactive

compound	group label
C[C@]12CCC(=O)C=C1CC[C@@H]1[C@@H]2CC[C@@]2(C)[C@H]1CC[C@]2(O)C(=O)CO	inactive
CN1C[C@H](C(=O)N[C@]2(C)O[C@@]3(O)[C@@H]4CCCN4C(=O)[C@H](Cc4ccccc4)N3C2=O)C[C@@H]2c3cccc4[nH]cc(c34)C[C@H]21	active
Nc1c2c(nc3ccccc13)CCCC2O (centres undefined)	inactive
CN(C)CCN(Cc1cccs1)c1ccccn1	active
CCn1ccnc1CC1COc2ccccc2O1 (centres undefined)	inactive
C[N+](C)(C)CCCCCCCCCC[N+](C)(C)C	active

Request: Short answer needed: outcome of this test for `Cc1nnc(SCC2=C(C(=O)O)N3C(=O)[C@@H](NC(=O)Cn4cnnn4)[C@H]3SC2)s1` ?
Response: inactive

Request: Short answer needed: outcome of this test for `CCCCNC(=O)NS(=O)(=O)c1ccc(C)cc1` ?
Response: inactive

Request: Short answer needed: outcome of this test for `NCCCNCCSP(=O)(O)O` ?
Response: inactive

---

Test system: CP238
Assay: qHTS profiling for inhibitors of Plasmodium falciparum proliferation (AID 504749); further: nearly all actives have a fitted effect of over 60% in size
Details: P. falciparum in erythrocytes, SYBR Green DNA, 72 h; series mostly up to 28.7 µM
Procedure: NIH National Institute of Allergy and Infectious Diseases [NIAID] NIH Chemical Genomics Center [NCGC] […] Because mature erythrocytes lack DNA, only Plasmodium-derived DNA is detected. NCGC Assay Protocol Summary: The SYBR Green viability assay was adapted from a method described previously (Plouffe et al., 2008). […] The following morning, fluorescence intensity at 485(14) nm excitation and 535(25) nm emission wavelengths was measured on an EnVision (Perkin Elmer) plate reader. […]
Results filed as inconclusive are left out. The source made the active and inactive calls. Calls follow the shape of the dose curve; as a rule, active = well fitted inhibition curve with a large enough effect; inconclusive = small, poorly fitted or top-dose-only effect; inactive = flat fitted curve, though single readings scatter.
Write down one outcome, taken from true (active), false (inactive)

See these solved cases before continuing.
molecule	group label
Cc1nc2ccccn2c(=O)c1CCN1CCC(C(=O)c2ccc(F)cc2)CC1	false
CSc1ccc(C(=O)c2[nH]c(=O)[nH]c2C)cc1	false
FC(F)(F)c1ccccc1-n1ccnc1	false
CCN(CC)CCNC(=O)c1cc(S(C)(=O)=O)ccc1OC	false

Request: Short answer needed: outcome of this test for `CCOC(=O)c1cnc2c(cnn2CC)c1NN=C(C)C` ?
Response: false

Request: Short answer needed: outcome of this test for `CCO/C([O-])=N/c1c[n+](N2CCOCC2)no1` ?
Response: false

Request: Short answer needed: outcome of this test for `CN=C(NC#N)NCCSCc1nc[nH]c1C` ?
Response: false
